molecular target: ctPrp43-HT (Hook-Turn mutant) (Chaetomium thermophilum? (printed C. …, UniProt G0RY84 1-764, R180G;F181G)); assay: fluorescence anisotropy; AMPPNP (100-fold excess), 3 mM MgCl2; Fluorescence anisotropy: 25 mM Tris pH 7.5, 150 mM KCl, 3 mM MgCl2, 25 C, 0.1 uM RNA, 0.01-50 uM protein, 100-fold excess AMPPNP; details: protein: recombinant; tags: GST-tag removed; label: 5' 6-carboxyfluorescein; single strand
Sequence (G0RY84 entry or part of it R180G;F181G | mutant): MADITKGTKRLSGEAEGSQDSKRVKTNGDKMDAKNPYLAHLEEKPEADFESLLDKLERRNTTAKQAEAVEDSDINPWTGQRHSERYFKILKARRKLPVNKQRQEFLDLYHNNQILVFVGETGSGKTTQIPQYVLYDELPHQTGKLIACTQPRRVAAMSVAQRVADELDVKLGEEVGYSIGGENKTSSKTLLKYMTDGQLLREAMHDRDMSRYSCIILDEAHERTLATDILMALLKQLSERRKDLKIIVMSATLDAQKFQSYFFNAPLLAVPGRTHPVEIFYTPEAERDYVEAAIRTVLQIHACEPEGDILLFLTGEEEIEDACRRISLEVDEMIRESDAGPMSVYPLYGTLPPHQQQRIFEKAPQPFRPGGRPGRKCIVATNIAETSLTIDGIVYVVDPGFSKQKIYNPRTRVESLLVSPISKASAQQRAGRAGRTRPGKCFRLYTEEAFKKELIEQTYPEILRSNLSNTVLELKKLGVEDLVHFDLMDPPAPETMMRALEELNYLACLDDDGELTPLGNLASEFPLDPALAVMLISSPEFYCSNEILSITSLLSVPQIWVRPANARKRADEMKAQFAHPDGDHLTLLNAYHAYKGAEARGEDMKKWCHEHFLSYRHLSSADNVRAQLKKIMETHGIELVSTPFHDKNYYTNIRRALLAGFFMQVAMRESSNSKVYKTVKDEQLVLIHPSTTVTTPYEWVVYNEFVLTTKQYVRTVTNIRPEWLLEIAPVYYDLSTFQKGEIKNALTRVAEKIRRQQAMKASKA
RECORDED_METRIC: Kd (nM)
Please give a number only; it is taken to be in nM.

Query :: So what's the measured Kd for this one? UUUUUUUUUUUUUUUU (ssRNA) [5'-6FAM-U16-RNA]
Result :: 840
